Kindly state MIC for each of the entries shown.
- Tested on: Mycobacterium tuberculosis
- protocol-summary: Antimycobacterial activity against Mycobacterium tuberculosis H37Rv ATCC 27294 infected in mouse J774 cells assessed as intracellular killing after 48 hrs by colony formation assay
- Type: functional
- condition: H37Rv ATCC 27294, 48 h

Give recorded MIC with Mycobacterium tuberculosis for the following compound: Cc1ccc(C(C)NC(=O)c2cc([N+](=O)[O-])c(C)c([N+](=O)[O-])c2)cc1 (racemic)
0.72 µM

Now consider "Cc1c([N+](=O)[O-])cc(C(=O)N[C@@H](C)c2ccc(F)cc2)cc1[N+](=O)[O-]" and answer again.
< 0.64 µM

Now consider "Cc1ccc([C@@H](C)NC(=O)c2cc([N+](=O)[O-])c(C)c([N+](=O)[O-])c2)cc1" and answer again.
1.44 µM

Now consider "Cc1c([N+](=O)[O-])cc(C(=O)N[C@H](C)c2ccc(F)cc2)cc1[N+](=O)[O-]" and answer again.
0.71 µM

Now consider "O=C(NCCc1ccccc1)c1cc([N+](=O)[O-])cc([N+](=O)[O-])c1" and answer again.
3.16 µM

Now consider "C[C@@H](NC(=O)c1cc([N+](=O)[O-])cc([N+](=O)[O-])c1)c1ccccc1" and answer again.
0.76 µM

Now consider "Cc1ccc([C@@H](C)NC(=O)c2cc([N+](=O)[O-])cc([N+](=O)[O-])c2)cc1" and answer again.
0.8 µM

====

- protocol-summary: Tmax in Balb mouse at 2.5 mg/kg, ip
- Type: ADME, organism-based
- Parameters: dose 2.5 mg/kg, route intraperitoneal
- condition: in vivo
Kindly state Tmax for each of the entries shown.
// return numeric value only (unit: min, not printed)

Quick one: Tmax for "Cc1c([N+](=O)[O-])cc(C(=O)N[C@@H](C)c2ccc(F)cc2)cc1[N+](=O)[O-]" ?
15

Now consider "Cc1ccc([C@@H](C)NC(=O)c2cc([N+](=O)[O-])c(C)c([N+](=O)[O-])c2)cc1" and answer again.
30
